Each item that follows carries a reported Kd (1/sec), off-rate as tabulated (XWU092 = 1.00).
tgt: T1, human IGF-1R(1-903)-Fc (human, UniProt P08069 31-933)
T1 construct: also called hIGF-1R-Fc; SDWT; not shown: human IgG1 Fc, C-terminal tag
test: biolayer interferometry (Octet), IGF-1R Fc on Protein A sensors, scFv culture supernatant
Set-up: unit not given here
Quick one: just the number, no unit, thanks!

MJF023, C06 (VL/GS3/VH) scFv with VL L11G, V15N (scFv, Kabat positions) scFv: DIQMTQSPLSGSASNGDRVTITCQASRDIRNYLNWYQQKPGKAPKLLIYDASSLQTGVPSRFGGSGSGTDFSFTIGSLQPEDIATYYCQQFDSLPHTFGQGTKLEIKGGGGSGGGGSGGGGSEVQLLESGGGLVQPGGSLRLSCAASGFTFSIYRMQWVRQAPGKGLEWVSGISPSGGTTWYADSVKGRFTISRDNSKNTLYLQMNSLRAEDTAVYYCARWSGGSGYAFDIWGQGTMVTVSSDDDKSFLEQKLISEEDLNSAVDHHHHHH :: 0.68

Kd (1/sec), off-rate as tabulated (XWU092 = 1.00) in this record for MJF045, stabilized C06 (I83E) scFv (scFv, Variant of pXWU092 with VL I83E (Kabat); also called C06 VL I83E scFv) scFv: DIQMTQSPLSLSASVGDRVTITCQASRDIRNYLNWYQQKPGKAPKLLIYDASSLQTGVPSRFGGSGSGTDFSFTIGSLQPEDEATYYCQQFDSLPHTFGQGTKLEIKGGGGSGGGGSGGGGSEVQLLESGGGLVQPGGSLRLSCAASGFTFSIYRMQWVRQAPGKGLEWVSGISPSGGTTWYADSVKGRFTISRDNSKNTLYLQMNSLRAEDTAVYYCARWSGGSGYAFDIWGQGTMVTVSS : 1.47

Each recorded value in this set is attributed to patent US20090130105A1.
